meta.source: patent US10479793B2

System: IFNα stimulated Kit225 T cells with a stably-integrated STAT-dependent luciferase reporter
method notes: Kit225 T cell assay, IFNα stimulated STAT-dependent luciferase reporter
Assay type: cell-based, human
condition parameters: KIT225; 200 U/mL human recombinant IFNα, 5-6 hours, luciferase; read-out: IFNa Kit225 Reporter, (IC50)
readout: IC50

Q) GET /values?readout=IC50&item= `N#Cc1cc(Nc2cc(NC3CC3)c3ncc(C(=O)NCCO)n3n2)cc(C(F)(F)F)c1`
A) 8480 nM

Q) Consider next the molecule CNc1cc(Nc2cccnc2-n2cccn2)nn2c(C(=O)NC3CCCC3O)cnc12 (centres unmarked) in the same way.
A) 450 nM

Q) Consider next the molecule `CNc1cc(Nc2c(F)c(F)cc(F)c2F)nn2c(C(N)=O)cnc12` in the same way.
A) 170 nM

Q) Consider next the molecule `CNc1cc(Nc2cccnc2-n2cccn2)nn2c(C(=O)N[C@@H](C)CO)cnc12` in the same way.
A) 310 nM

Q) Consider next the molecule `CNc1nc(Nc2cc(C)cc(C)c2)nn2c(C(N)=O)cnc12` in the same way.
A) 150 nM

Q) Consider next the molecule CNc1cc(Nc2cccc(N3CCC(O)C3=O)n2)nn2c(C(=O)NC3CC3)cnc12 (centres unmarked) in the same way.
A) 140 nM

Q) Consider next the molecule `CNc1cc(Nc2cccc3c2OCCO3)nn2c(C(=O)NCC(C)(C)O)cnc12` in the same way.
A) 90 nM

Q) Consider next the molecule `CNc1cc(N2CCc3ccccc32)nn2c(C(=O)NC3CC3)cnc12` in the same way.
A) 70 nM

Q) Consider next the molecule `Cc1cc(C)cc(Nc2cc(NCC3CC3)c3ncc(C(N)=O)n3n2)c1` in the same way.
A) 2900 nM

Q) Consider next the molecule `CNc1cc(Nc2cccc(N3CCOC3=O)n2)nn2c(C(=O)NC3CC3)cnc12` in the same way.
A) 60 nM

Q) Consider next the molecule `Cc1cc(C)cc(Nc2nc(NC3CC3)c3ncc(C(N)=O)n3n2)c1` in the same way.
A) 12500 nM

Q) Consider next the molecule `Cc1cc(C)cc(Nc2cc(Nc3cc(C)n(C)n3)c3ncc(C(N)=O)n3n2)c1` in the same way.
A) 11000 nM

Q) Consider next the molecule `CNc1cc(Nc2cccc(-c3ccc(OC(F)(F)F)cc3)n2)nn2c(C(=O)NC3(C#N)CC3)cnc12` in the same way.
A) 660 nM

Q) Consider next the molecule `CNc1cc(Nc2cccnc2-n2cccn2)nn2c(C(=O)NCC(C)(C)O)cnc12` in the same way.
A) 2580 nM
